System: cancer cell lines from the cancer cell line encyclopedia (CCLE)
assayInfo: Cell line profiling (CLiP) proliferation experiment
Assay type: cell-based
measurementConditions: Homo sapiens, 22Rv1, cell line 22Rv1; prostate; NS; read-out: Crossing Point
attributeMeasured: pIC50
pIC50 here is simply -log10 of the concentration when that concentration is written in mol/L.

Report pIC50 for CC(C)[C@@]12C[C@@H](O)[C@@](C)(O1)[C@@H]1CC[C@@H](C)[C@H]1[C@@H]2OC(=O)/C=C/c1ccccc1 tested on cancer cell lines from the cancer cell line encyclopedia (CCLE). 4.56

###

Test system: cancer cell lines from the cancer cell line encyclopedia (CCLE)
assayInfo: Cell line profiling (CLiP) proliferation experiment
Format: cell-based
measurementConditions: GP2d, cell line GP2d, large_intestine; read-out: Crossing Point
attributeMeasured: IC50

Report IC50 for CC(C)[C@@]12C[C@@H](O)[C@@](C)(O1)[C@@H]1CC[C@@H](C)[C@H]1[C@@H]2OC(=O)/C=C/c1ccccc1 [Englerin B] tested on cancer cell lines from the cancer cell line encyclopedia (CCLE). > 30 µM

###

Tested on: cancer cell lines from the cancer cell line encyclopedia (CCLE)
assayInfo: Cell line profiling (CLiP) proliferation experiment
Type: cell-based
measurementConditions: cell line HMC-1-8, breast; read-out: Crossing Point
attributeMeasured: IC50 (µM)
All answers are understood in µM, so give the number only.

Entry CC(C)[C@@]12C[C@@H](O)[C@@](C)(O1)[C@@H]1CC[C@@H](C)[C@H]1[C@@H]2OC(=O)/C=C/c1ccccc1 [Englerin B] has what IC50? 29.7

###

Test system: cancer cell lines from the cancer cell line encyclopedia (CCLE)
assayInfo: Cell line profiling (CLiP) proliferation experiment
Type: cell-based
measurementConditions: Homo sapiens, HCC1143, cell line HCC1143; read-out: Crossing Point
pIC50: −log10 of the molar value.
attributeMeasured: pIC50

Entry CC(C)[C@@]12C[C@@H](O)[C@@](C)(O1)[C@@H]1CC[C@@H](C)[C@H]1[C@@H]2OC(=O)/C=C/c1ccccc1 has what pIC50? < 4.52

###

Test system: cancer cell lines from the cancer cell line encyclopedia (CCLE)
assayInfo: Cell line profiling (CLiP) proliferation experiment
Assay type: cell-based
measurementConditions: Homo sapiens, TOV112D, TOV-112D (ovary, endometrioid_carcinoma); read-out: Crossing Point
attributeMeasured: pIC50
pIC50 here is simply -log10 of the concentration when that concentration is written in mol/L.

Report pIC50 for CC(C)[C@@]12C[C@@H](O)[C@@](C)(O1)[C@@H]1CC[C@@H](C)[C@H]1[C@@H]2OC(=O)/C=C/c1ccccc1 tested on cancer cell lines from the cancer cell line encyclopedia (CCLE). 4.71

###

Tested on: cancer cell lines from the cancer cell line encyclopedia (CCLE)
assayInfo: Cell line profiling (CLiP) proliferation experiment
Format: cell-based
measurementConditions: Homo sapiens, LCLC-97TM1, LCLC-97TM1 (lung); read-out: Crossing Point
pIC50: −log10 of the molar value.
attributeMeasured: pIC50

Entry CC(C)[C@@]12C[C@@H](O)[C@@](C)(O1)[C@@H]1CC[C@@H](C)[C@H]1[C@@H]2OC(=O)/C=C/c1ccccc1 has what pIC50? < 4.52

###

System: cancer cell lines from the cancer cell line encyclopedia (CCLE)
assayInfo: Cell line profiling (CLiP) proliferation experiment
Format: cell-based
measurementConditions: Homo sapiens, KMS-12-BM; read-out: Inflection Point
attributeMeasured: pEC50
pEC50 here is simply -log10 of the concentration when that concentration is written in mol/L.

Entry CC(C)[C@@]12C[C@@H](O)[C@@](C)(O1)[C@@H]1CC[C@@H](C)[C@H]1[C@@H]2OC(=O)/C=C/c1ccccc1 has what pEC50? 4.60

###

Tested on: cancer cell lines from the cancer cell line encyclopedia (CCLE)
assayInfo: Cell line profiling (CLiP) proliferation experiment
Assay type: cell-based
measurementConditions: Homo sapiens, HEC-1-A, cell line HEC-1-A, endometrium; read-out: Crossing Point
attributeMeasured: IC50

Report IC50 for CC(C)[C@@]12C[C@@H](O)[C@@](C)(O1)[C@@H]1CC[C@@H](C)[C@H]1[C@@H]2OC(=O)/C=C/c1ccccc1 [Englerin B] tested on cancer cell lines from the cancer cell line encyclopedia (CCLE). > 30 µM

###

System: cancer cell lines from the cancer cell line encyclopedia (CCLE)
assayInfo: Cell line profiling (CLiP) proliferation experiment
Assay type: cell-based
measurementConditions: Homo sapiens, NCI-H520, NCI-H520, lung, squamous_cell_carcinoma; read-out: Crossing Point
Experimental: Compound profiling experiment and data analysis was performed as previously described. Data was imported and plotted using the Tibco Spotfire DXP application. Lines were categorized as sensitive, intermediate and refractory as follows: Amax<-40 & Inflection Point <2 ~ Sensitive, Amax>-20 & Inflection Point >10 ~ Refractory, all else were called Intermediate. Cancer Cell line HG-U133 Plus 2 data was processed and normalized as described. […]
attributeMeasured: IC50

Entry CC(C)[C@@]12C[C@@H](O)[C@@](C)(O1)[C@@H]1CC[C@@H](C)[C@H]1[C@@H]2OC(=O)/C=C/c1ccccc1 has what IC50? > 30 µM

###

Tested on: cancer cell lines from the cancer cell line encyclopedia (CCLE)
assayInfo: Cell line profiling (CLiP) proliferation experiment
Type: cell-based
measurementConditions: Homo sapiens, NCI-H226, NCI-H226, lung, squamous_cell_carcinoma; read-out: Crossing Point
Experimental: Compound profiling experiment and data analysis was performed as previously described. Data was imported and plotted using the Tibco Spotfire DXP application. Lines were categorized as sensitive, intermediate and refractory as follows: Amax<-40 & Inflection Point <2 ~ Sensitive, Amax>-20 & Inflection Point >10 ~ Refractory, all else were called Intermediate. Cancer Cell line HG-U133 Plus 2 data was processed and normalized as described. […]
attributeMeasured: IC50

Entry CC(C)[C@@]12C[C@@H](O)[C@@](C)(O1)[C@@H]1CC[C@@H](C)[C@H]1[C@@H]2OC(=O)/C=C/c1ccccc1 has what IC50? > 30 µM

###

Tested on: cancer cell lines from the cancer cell line encyclopedia (CCLE)
assayInfo: Cell line profiling (CLiP) proliferation experiment
Format: cell-based
measurementConditions: Homo sapiens, CAKI-2, Caki-2 (kidney); read-out: Crossing Point
attributeMeasured: IC50

Entry CC(C)[C@@]12C[C@@H](O)[C@@](C)(O1)[C@@H]1CC[C@@H](C)[C@H]1[C@@H]2OC(=O)/C=C/c1ccccc1 [Englerin B] has what IC50? > 30 µM

###

Test system: cancer cell lines from the cancer cell line encyclopedia (CCLE)
assayInfo: Cell line profiling (CLiP) proliferation experiment
Assay type: cell-based
measurementConditions: Homo sapiens, NCI-H1623, cell line NCI-H1623; read-out: Crossing Point
Experimental: Compound profiling experiment and data analysis was performed as previously described. Data was imported and plotted using the Tibco Spotfire DXP application. Lines were categorized as sensitive, intermediate and refractory as follows: Amax<-40 & Inflection Point <2 ~ Sensitive, Amax>-20 & Inflection Point >10 ~ Refractory, all else were called Intermediate. Cancer Cell line HG-U133 Plus 2 data was processed and normalized as described. […]
pIC50: −log10 of the molar value.
attributeMeasured: pIC50

Report pIC50 for CC(C)[C@@]12C[C@@H](O)[C@@](C)(O1)[C@@H]1CC[C@@H](C)[C@H]1[C@@H]2OC(=O)/C=C/c1ccccc1 [Englerin B] tested on cancer cell lines from the cancer cell line encyclopedia (CCLE). < 4.52

###

Test system: cancer cell lines from the cancer cell line encyclopedia (CCLE)
assayInfo: Cell line profiling (CLiP) proliferation experiment
Type: cell-based
measurementConditions: Homo sapiens, MOLM-13, cell line MOLM-13 (haematopoietic_and_lymphoid_tissue); read-out: Crossing Point
attributeMeasured: IC50 (µM)
All answers are understood in µM, so give the number only.

Entry CC(C)[C@@]12C[C@@H](O)[C@@](C)(O1)[C@@H]1CC[C@@H](C)[C@H]1[C@@H]2OC(=O)/C=C/c1ccccc1 [Englerin B] has what IC50? 13.4

###

Tested on: cancer cell lines from the cancer cell line encyclopedia (CCLE)
assayInfo: Cell line profiling (CLiP) proliferation experiment
Type: cell-based
measurementConditions: Homo sapiens, MKN-45, cell line MKN-45 (stomach); read-out: Crossing Point
attributeMeasured: IC50

Entry CC(C)[C@@]12C[C@@H](O)[C@@](C)(O1)[C@@H]1CC[C@@H](C)[C@H]1[C@@H]2OC(=O)/C=C/c1ccccc1 [Englerin B] has what IC50? > 30 µM

###

Tested on: cancer cell lines from the cancer cell line encyclopedia (CCLE)
assayInfo: Cell line profiling (CLiP) proliferation experiment
Format: cell-based
measurementConditions: Homo sapiens, JeKo-1, JeKo-1; read-out: Inflection Point
attributeMeasured: EC50 (µM)
All answers are understood in µM, so give the number only.

Entry CC(C)[C@@]12C[C@@H](O)[C@@](C)(O1)[C@@H]1CC[C@@H](C)[C@H]1[C@@H]2OC(=O)/C=C/c1ccccc1 [Englerin B] has what EC50? 7.64

###

Test system: cancer cell lines from the cancer cell line encyclopedia (CCLE)
assayInfo: Cell line profiling (CLiP) proliferation experiment
Format: cell-based
measurementConditions: Homo sapiens, T47D, T-47D (breast); read-out: Crossing Point
pIC50: −log10 of the molar value.
attributeMeasured: pIC50

Entry CC(C)[C@@]12C[C@@H](O)[C@@](C)(O1)[C@@H]1CC[C@@H](C)[C@H]1[C@@H]2OC(=O)/C=C/c1ccccc1 has what pIC50? < 4.52

Just for reference, paper PMC4476799 is where these values come from.
